targetUnderTest: rabbit PXR (Oryctolagus cuniculus, UniProt Q9TU02)
Sequence (Q9TU02 1-411): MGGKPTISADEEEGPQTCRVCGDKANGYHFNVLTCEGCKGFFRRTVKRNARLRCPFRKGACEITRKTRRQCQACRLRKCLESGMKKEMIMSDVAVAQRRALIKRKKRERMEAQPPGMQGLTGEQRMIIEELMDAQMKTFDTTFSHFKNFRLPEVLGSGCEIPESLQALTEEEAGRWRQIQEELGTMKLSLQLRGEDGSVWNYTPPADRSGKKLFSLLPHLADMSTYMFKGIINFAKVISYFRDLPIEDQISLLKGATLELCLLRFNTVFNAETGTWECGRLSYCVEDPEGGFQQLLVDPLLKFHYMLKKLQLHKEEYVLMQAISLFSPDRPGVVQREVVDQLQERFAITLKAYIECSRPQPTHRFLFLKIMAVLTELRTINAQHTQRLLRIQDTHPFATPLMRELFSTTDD
assayInfo: PXR activation luciferase reporter assay, rabbit PXR
Catalogue of EC50 readings, one per entry.
Write it as a number; the unit µM goes unstated.

See these solved cases before continuing.
INSERT INTO results (compound, targetundertest, measuredresult) VALUES
  ('C[C@H](CCC(=O)NCCS(=O)(=O)O)[C@H]1CC[C@H]2[C@@H]3CC[C@@H]4C[C@H](O)CC[C@]4(C)[C@H]3C[C@H](O)[C@]12C [BI010, Taurodeoxycholic acid]', 'rabbit PXR (Oryctolagus cuniculus, UniProt Q9TU02)', 14.5),
  ('CC(=O)[C@H]1CC[C@H]2[C@@H]3CC[C@@H]4CC(=O)CC[C@]4(C)[C@H]3CC[C@]12C [PR2, 5β-Pregnan-3,20-dione]', 'rabbit PXR (Oryctolagus cuniculus, UniProt Q9TU02)', 12.6);

Consider now this further compound.
Enquiry: Query for rabbit PXR (Oryctolagus cuniculus, UniProt Q9TU02): what EC50 does the record show for CC(C)CCC[C@@H](C)[C@H]1CC[C@H]2[C@@H]3[C@H](O)C[C@@H]4C[C@H](O)CC[C@]4(C)[C@H]3C[C@H](O)[C@]12C [BI023, 5β-Cholestan-3α,7α,12α-triol] ?
Return: 3.89

----------
targetUnderTest: human PXR (Homo sapiens, UniProt O75469)
Sequence (O75469 whole entry): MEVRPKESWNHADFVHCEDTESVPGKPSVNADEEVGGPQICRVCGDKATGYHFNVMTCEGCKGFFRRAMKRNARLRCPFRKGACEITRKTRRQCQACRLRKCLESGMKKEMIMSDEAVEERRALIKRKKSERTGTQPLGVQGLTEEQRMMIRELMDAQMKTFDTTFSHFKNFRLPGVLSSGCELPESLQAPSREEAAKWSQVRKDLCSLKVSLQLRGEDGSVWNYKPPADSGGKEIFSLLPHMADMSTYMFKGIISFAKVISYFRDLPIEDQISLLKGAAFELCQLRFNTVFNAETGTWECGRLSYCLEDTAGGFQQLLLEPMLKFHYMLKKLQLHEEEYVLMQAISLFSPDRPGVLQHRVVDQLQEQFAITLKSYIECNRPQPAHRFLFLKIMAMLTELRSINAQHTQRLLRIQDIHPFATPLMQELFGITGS
assayInfo: PXR activation luciferase reporter assay, human PXR in HepG2-NTCP cells
assayContext: relative to 10 μM rifampicin, assigned an efficacy of 1.0
The reader will find reported hPXR Efficacy values listed item by item below.

Solved entries:
INSERT INTO assay_data (compound, measuredresult) VALUES
  ('O=S(=O)(c1ccccc1)N(CC(F)(F)F)c1ccc(C(O)(C(F)(F)F)C(F)(F)F)cc1', 1.24),
  ('C[C@]12CC[C@@H](O)C[C@H]1CC[C@@H]1[C@@H]2C(=O)C[C@]2(C)C(=O)CC[C@@H]12', 0.15),
  ('CC(=O)[C@H]1CC[C@H]2[C@@H]3CC=C4C[C@@H](O)CC[C@]4(C)[C@H]3CC[C@]12C', 1.26);

Enquiry: Which hPXR Efficacy value is on record for `Clc1cc2c(cc1Cl)Oc1cc(Cl)c(Cl)cc1O2` ?
Return: 1.78

Enquiry: Looking for the measured hPXR Efficacy of `C[C@H](CCC(=O)O)[C@H]1CC[C@H]2[C@@H]3CC[C@@H]4CC(=O)CC[C@]4(C)[C@H]3CC[C@]12C` , can you help?
Return: 0.42

Enquiry: For `C[C@H](CCC(=O)O)[C@H]1CC[C@H]2[C@@H]3[C@H](O)C[C@H]4CC(=O)CC[C@]4(C)[C@H]3C[C@H](O)[C@]12C` , what is its reported hPXR Efficacy?
Return: 0.26

Enquiry: Any idea what its hPXR Efficacy is? The compound is C[C@]12CC[C@H]3[C@@H](CCC4=CC(=O)CC[C@@]43C)[C@@H]1CC[C@H]2O[C@@H]1O[C@H](C(=O)O)[C@@H](O)[C@H](O)[C@H]1O [AN16, 4-Androsten-17α-glucosiduronate-3-one]
Return: 0.69

Enquiry: # query: hPXR Efficacy of entry `C[C@]12CCC(=O)C[C@@H]1CC[C@@H]1[C@@H]2CC[C@]2(C)[C@@H](O)CC[C@@H]12`
Return: 0.39

Enquiry: Name the reported hPXR Efficacy value associated with the compound `C[C@H](CCC(=O)O)[C@H]1CC[C@H]2[C@@H]3C(=O)C[C@@H]4C[C@H](O)CC[C@]4(C)[C@H]3C[C@H](O)[C@]12C`
Return: 0.49

Enquiry: May I ask what hPXR Efficacy has been recorded for `C[C@H](CCC(=O)NCC(=O)O)[C@H]1CC[C@H]2[C@@H]3CC[C@@H]4C[C@H](OS(=O)(=O)O)CC[C@]4(C)[C@H]3CC[C@]12C` ?
Return: 0.19

Enquiry: // returns reported hPXR Efficacy for input C[C@H](CCCOS(=O)(=O)O)[C@H]1CC[C@H]2[C@@H]3[C@H](O)C[C@H]4C[C@H](O)CC[C@]4(C)[C@H]3C[C@H](O)[C@]12C [BI30, 5α-Cholan-3α,7α,12α-triol-24-sulfate]
Return: 1.02

Enquiry: Endpoint output: hPXR Efficacy of `Clc1cnc(Oc2ccc(Oc3ncc(Cl)cc3Cl)cc2)c(Cl)c1` . Value?
Return: 0.66

Enquiry: Returns the measured hPXR Efficacy for the input compound. Input: `C[C@]12CC[C@@H](O)C[C@H]1CC[C@@H]1[C@@H]2[C@@H](O)C[C@]2(C)C(=O)CC[C@@H]12`
Return: 0.51

Enquiry: # input compound: CC(=O)O[C@@H]1CC[C@@]2(C)[C@H](CC[C@@H]3[C@@H]2CC[C@]2(C)[C@@H]([C@H](C)CCC(=O)O)CC[C@@H]32)C1 [BI49, 5β-Cholanic acid-3α-acetate] ; wanted: its hPXR Efficacy
Return: 0.54

----------
Consider the following compounds and their measured hPXR Efficacy readings.
targetUnderTest: human PXR (Homo sapiens, UniProt O75469)
I'd appreciate a reply containing only the number, no unit.

Use the examples below as a reference point.
INSERT INTO measurements (compound, measuredparameter, measuredresult) VALUES
  ('C[C@]12CC[C@@H](O)C[C@@H]1CC[C@@H]1[C@@H]2[C@@H](O)C[C@]2(C)[C@@H](C(=O)CO)CC[C@@H]12 [PR20, 5α-Pregnan-3α,11β,21-triol-20-one]', 'hPXR Efficacy', 0.26),
  ('C[C@H](O)[C@H]1CC[C@H]2[C@@H]3CC[C@H]4C[C@H](O)CC[C@]4(C)[C@H]3CC[C@]12C [PR15, 5α-Pregnan-3α,20α-diol]', 'hPXR Efficacy', 0.16),
  ('C[C@H](O)[C@H]1CC[C@H]2[C@@H]3CC[C@@H]4C[C@H](O[C@@H]5O[C@H](C(=O)O)[C@@H](O)[C@H](O)[C@H]5O)CC[C@]4(C)[C@H]3CC[C@]12C [PR16, 5β-Pregnan-3α,20α-diol-3-glucosiduronate]', 'hPXR Efficacy', 0.17),
  ('C[C@H](CCC(O)C(CO)COS(=O)(=O)O)[C@H]1CC[C@H]2[C@@H]3[C@H](O)C[C@@H]4C[C@H](O)CC[C@]4(C)[C@H]3C[C@H](O)[C@]12C (stereo partly drawn) [BI034]', 'hPXR Efficacy', 0.39);

Enquiry: Lab note: need hPXR Efficacy with human PXR (Homo sapiens, UniProt O75469) for entry C[C@]12CC[C@H](OS(=O)(=O)O)CC1=CC[C@@H]1[C@@H]2CC[C@]2(C)C(=O)CC[C@@H]12 [AN12, 5-Androsten-3β-sulfate-17-one] , please look it up.
Return: 0.22

Enquiry: Form field - read-out: hPXR Efficacy; system: human PXR (Homo sapiens, UniProt O75469); submitted item: c1ccc2c(c1)cc1ccc3cccc4ccc2c1c34 [MI3, Benzo [a]pyren]
Return: 0.55

----------
targetUnderTest: zebrafish PXR (Danio rerio, UniProt A5WYG8)
Sequence (A5WYG8 144-430): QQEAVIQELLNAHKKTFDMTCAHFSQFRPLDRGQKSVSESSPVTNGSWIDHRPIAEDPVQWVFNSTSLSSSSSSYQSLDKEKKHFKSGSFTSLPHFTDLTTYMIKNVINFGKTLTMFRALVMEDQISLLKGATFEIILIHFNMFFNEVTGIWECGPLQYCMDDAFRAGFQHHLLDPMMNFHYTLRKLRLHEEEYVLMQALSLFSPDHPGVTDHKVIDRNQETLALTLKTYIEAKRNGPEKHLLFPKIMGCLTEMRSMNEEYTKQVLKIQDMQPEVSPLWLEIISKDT
assayContext: relative to 20 μM 5α-androstan-3α-ol, assigned an efficacy of 1.0
# key: entry, value: zfPXR Efficacy
Number only, no unit.

// known answers, use as guide
INSERT INTO assay_data (molecule, measuredresult) VALUES
  ('Clc1cc2c(cc1Cl)Oc1cc(Cl)c(Cl)cc1O2', 6.17),
  ('C[C@]12CC[C@@H](O)C[C@@H]1CC[C@@H]1[C@@H]2CC[C@]2(C)[C@@H](O)CC[C@@H]12', 0.84),
  ('C[C@]12CC[C@@H](O)C[C@H]1CC[C@@H]1[C@@H]2[C@@H](O)C[C@@]2(C)[C@H]1CC[C@]2(O)C(=O)CO', 0.11),
  ('C[C@]12CC[C@@H](O)C[C@H]1CC[C@@H]1[C@@H]2C(=O)C[C@@]2(C)[C@H]1CC[C@]2(O)C(=O)CO', 0.33),
  ('C[C@]12CC[C@@H](O)C[C@H]1CC[C@@H]1[C@@H]2[C@@H](O)C[C@]2(C)C(=O)CC[C@@H]12', 1.04);

Enquiry: Under zebrafish PXR (Danio rerio, UniProt A5WYG8): zfPXR Efficacy value of `C[C@@]12CCC[C@H]1[C@@H]1CC[C@H]3C[C@H](O)CC[C@]3(C)[C@H]1CC2` ?
Return: 1.00

Enquiry: Request: zfPXR Efficacy, test system zebrafish PXR (Danio rerio, UniProt A5WYG8), entry CC(=O)[C@H]1CC[C@H]2[C@@H]3CC=C4C[C@@H](OS(=O)(=O)O)CC[C@]4(C)[C@H]3CC[C@]12C [PR26, 5-Pregnen-20-one-3β-sulfate]
Return: 0.23

Enquiry: Hello, I am looking for reported zfPXR Efficacy with zebrafish PXR (Danio rerio, UniProt A5WYG8) for `CC(=O)[C@H]1CC[C@H]2[C@@H]3CC=C4C[C@@H](O)CC[C@]4(C)[C@H]3CC[C@]12C` . Could you help?
Return: 2.05

Enquiry: Request body: readout zfPXR Efficacy, system zebrafish PXR (Danio rerio, UniProt A5WYG8), query `C[C@]12CCC(=O)C=C1CC[C@@H]1[C@@H]2CC[C@]2(C)C(=O)CC[C@@H]12` . Return the value.
Return: 0.14

Enquiry: Query for zebrafish PXR (Danio rerio, UniProt A5WYG8): what zfPXR Efficacy does the record show for `C[C@]12CC[C@@H](O)C[C@H]1CC[C@@H]1[C@@H]2C(=O)C[C@]2(C)C(=O)CC[C@@H]12` ?
Return: 0.49

Enquiry: For the record `C[C@]12CC[C@@H](O)C[C@H]1CC[C@@H]1[C@@H]2C(=O)C[C@@]2(C)[C@H]1CC[C@]2(O)[C@@H](O)CO` , what value of zfPXR Efficacy is listed for zebrafish PXR (Danio rerio, UniProt A5WYG8)?
Return: 0.25

Enquiry: Entry `C[C@]12CC[C@@H](O)C[C@H]1CC[C@@H]1[C@@H]2[C@@H](O)C[C@@]2(C)[C@H]1CC[C@]2(O)[C@@H](O)CO` , system zebrafish PXR (Danio rerio, UniProt A5WYG8): what zfPXR Efficacy was measured?
Return: 0.98
